FYI, the data here is from ChEMBL document CHEMBL1201862.

# Tested on: SK-OV-3
# EXPERIMENT_DESCRIPTION: NCI tumour cell line growth inhibition, 48 h
Calls of active or inactive are those of the source. No stated cut-off is given here; in the data, active = GI50 up to about 1.1 µM and inactive = higher.
Outcome codes: active, inactive

{"COMPOUND": "CCOC(=O)CC[C@H](NC(=O)c1nc[nH]c1[N+](=O)[O-])C(=O)OCC", "CAT": "inactive"}
{"COMPOUND": "COc1ccc(/C=C\\c2cc(OC)c(OC)c(OC)c2)cc1", "CAT": "active"}
{"COMPOUND": "NC(=O)N/N=C(\\CCC(=O)N(Cc1ccccc1)Cc1ccccc1)CC(=O)c1ccc(F)cc1", "CAT": "inactive"}
{"COMPOUND": "C1=C(c2ccccc2)CN(c2ccccc2)OC1", "CAT": "inactive"}
{"COMPOUND": "COc1ccc(N2C(=O)C(=O)N(C)C2=O)c2ccccc12", "CAT": "inactive"}
{"COMPOUND": "CC#CC(O)(C(=O)OC1CCC2CCC1N2C)C1CCCC1 (configuration not stated)", "CAT": "inactive"}
{"COMPOUND": "CCOC(=O)C(NC(=O)c1cccc(Cl)c1)(N1CCN(c2cc3c(cc2F)c(=O)c(C(=O)O)cn3C2CC2)CC1)C(F)(F)F (configuration not stated)", "CAT": "inactive"}
{"COMPOUND": "O=[N+]([O-])c1ccc2c(c1)nc1n2C(c2c(F)cccc2F)SC1 (configuration not stated)", "CAT": "inactive"}
{"COMPOUND": "O=C(O)CCCCCOc1cccnc1/C=N/NC1=NCCN1", "CAT": "inactive"}
{"COMPOUND": "CC(=O)OC(/C=C1/C=CC(=O)O1)COC(=O)c1ccccc1 (configuration not stated) [ACETYLMELODORINOL]", "CAT": "inactive"}
{"COMPOUND": "Cn1nc2ccc([N+](=O)[O-])cc2[n+]1[O-]", "CAT": "inactive"}
{"COMPOUND": "CCC(/C(=N/NC(=O)C[N+](C)(C)C)c1ccccc1)C1OC(=O)c2ccccc21 (configuration not stated)", "CAT": "inactive"}
